Protein target, amino acids: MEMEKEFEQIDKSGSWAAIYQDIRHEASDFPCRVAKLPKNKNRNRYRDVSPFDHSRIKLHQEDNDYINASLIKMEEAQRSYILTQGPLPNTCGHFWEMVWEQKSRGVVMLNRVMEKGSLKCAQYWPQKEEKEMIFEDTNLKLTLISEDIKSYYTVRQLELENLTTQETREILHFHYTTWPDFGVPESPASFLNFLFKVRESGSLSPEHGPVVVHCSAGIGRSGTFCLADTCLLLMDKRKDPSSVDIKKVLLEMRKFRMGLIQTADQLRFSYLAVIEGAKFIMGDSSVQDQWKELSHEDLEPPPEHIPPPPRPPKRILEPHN
Measured attribute: Kd (µM)
Number only, in µM; omit the unit.

# Kd lookup, item CCOCc1cc(O)c(O)c(Br)c1Cc1cc(O)c(O)c(Br)c1Br
3.3
